The reported numbers originate from patent US20250197372A1.

- Assay system: rat maltase (partially purified alpha-glucosidase from intestinal rat powder)
- Experiment description: Intestinal alpha-glucosidase assay, maltose substrate (Glucose GO Kit)
pIC50: −log10 of the molar value.
Here, each record is paired with measured pIC50 data.

Smiles	Assay system	Limit qualifier	pIC50
N#CCc1ccc(NCCCCCCN2C[C@H](O)[C@@H](O)[C@H](O)[C@H]2CO)c([N+](=O)[O-])c1	rat maltase (partially purified alpha-glucosidase from intestinal rat powder)	=	8.30
Cc1cc(CN2CCOCC2)cc(NCCCCCCN2C[C@H](O)[C@@H](O)[C@H](O)[C@H]2CO)c1	rat maltase (partially purified alpha-glucosidase from intestinal rat powder)	=	7.68
O=[N+]([O-])c1cc(C2CC2)ccc1NCCCCCCN1C[C@H](O)[C@@H](O)[C@H](O)[C@H]1CO	rat maltase (partially purified alpha-glucosidase from intestinal rat powder)	>	9.00
[N-]=[N+]=Nc1ccc(NCC[C@H]2CC[C@H](CCN3C[C@H](O)[C@@H](O)[C@H](O)[C@H]3CO)CC2)c([N+](=O)[O-])c1	rat maltase (partially purified alpha-glucosidase from intestinal rat powder)	=	6.60
COc1cc(-c2cnccn2)ccc1NCCCCCCN1C[C@H](O)[C@@H](O)[C@H](O)[C@H]1CO	rat maltase (partially purified alpha-glucosidase from intestinal rat powder)	=	8.10
OC[C@@H]1[C@@H](O)[C@H](O)[C@@H](O)CN1Cc1cccc(CNc2ccc(Br)cc2)c1	rat maltase (partially purified alpha-glucosidase from intestinal rat powder)	=	7.09
Cc1cc(NCc2cccc(CN3C[C@H](O)[C@@H](O)[C@H](O)[C@H]3CO)c2)cc(-c2ncccn2)c1	rat maltase (partially purified alpha-glucosidase from intestinal rat powder)	=	7.31
